- System: L1210 leukemia ip in BDF1 mice, survival T/C
- TEST: NCI In Vivo Anticancer Drug Screen. Data for tumor model L1210 Leukemia (intraperitoneal) in B6D2F1 (BDF1) mice
- EXPERIMENTAL CONTEXT: endpoint: mean survival time; dose: 400.0 mg/kg/injection; schedule: Q01DX009 (ip); vehicle: saline with Tween-80; higher = longer survival
Toxic doses and inconclusive results are not listed.
Reported values of T/C for individual entries
RESULT TYPE: T/C

[[record]]
compound = "CC(=O)OCC(CCn1ccc(=O)[nH]c1=O)COC(C)=O"
reported_value = "100 % of control"

[[record]]
compound = "CC(=O)OC1C=CCC2C(=O)c3c(c(O)c4ccccc4c3O)C(=O)C12 (stereo not drawn)"
reported_value = "100 % of control"

[[record]]
compound = "O=C(Nc1ccc(CCO)cc1)Nc1ccccc1C(F)(F)F"
reported_value = "92 % of control"

[[record]]
compound = "Cc1ccc(C2(C(=O)O)CC2)cc1"
reported_value = "94 % of control"

[[record]]
compound = "Nc1ncccc1[N+](=O)[O-]"
reported_value = "112 % of control"

[[record]]
compound = "O=C(O)CCc1ccccc1"
reported_value = "86 % of control"

[[record]]
compound = "O=C(CCN1CC=C(c2ccccc2)CC1)NCc1ccccc1"
reported_value = "95 % of control"

[[record]]
compound = "Cc1ccccc1OS(=O)(=O)c1cccc([N+](=O)[O-])c1"
reported_value = "90 % of control"

